Experimental target: UniProtKB P41145
Experiment notes: OPRK1 antagonist assay (b-arrestin-2-TEV / b-lactamase reporter cell line, EC80 U-50488 challenge)
Assay type: cell-based
Condition details: read-out: IC50 nM (% inhib if other than 50%); antagonist mode vs EC80 U-50488; NA = not active at concentrations up to 10 μM
// values below are reported IC50
Report the value in nM with no unit label.

- Molecule: "COC1CN(c2nc3ccc(C)cc3cc2C(=O)OC(C)C)CCC1NC1CCCCC1 (stereo not drawn)"
  IC50 / nM: 38
- Molecule: "COC1CN(c2nc3ccc(C)cc3cc2-c2nc(C)no2)CCC1NC1CCCCC1 (stereo not drawn) [compound 293]"
  IC50 / nM: 20
- Molecule: "Cc1cc(-c2nc(C)no2)c(N2CCC(NC3CCCCC3)C(CO)C2)nn1 (stereo not drawn)"
  IC50 / nM: 7
- Molecule: "Cc1ccc2cc(-c3nc(C)no3)c(N3CCC(NC4CCOCC4)CC3)nc2c1"
  IC50 / nM: 930
- Molecule: "COC(=O)c1cc(Br)cnc1N1C2CCC1CC(NC1CCCCC1)C2 (stereo not drawn)"
  IC50 / nM: 7700
- Molecule: "COC1CN(c2nc3ccc(C)cc3cc2C(=O)N(C)C)CCC1NC1CCCCC1 (stereo not drawn)"
  IC50 / nM: 96

What IC50 value was documented for this molecule, Cc1noc(-c2cc3c(nc2N2CC[C@@H](NC4CCCCC4)[C@H](O)C2)CCC3)n1 ?
276

Also Cc1cc(-c2nc(C3CC3)no2)c(N2CCC(NCC(C)C)CC2)nn1 , if possible.
30

Also COC(=O)c1cc(Br)cnc1N1CCC(NC2CCCCCC2)C(C(=O)OC)C1 (stereo not drawn) [compound 115] , if possible.
1700

* * *

Experimental target: kappa opioid receptor (OPRK1) (Homo sapiens (Human), UniProt P41145)
Sequence (P41145 whole entry): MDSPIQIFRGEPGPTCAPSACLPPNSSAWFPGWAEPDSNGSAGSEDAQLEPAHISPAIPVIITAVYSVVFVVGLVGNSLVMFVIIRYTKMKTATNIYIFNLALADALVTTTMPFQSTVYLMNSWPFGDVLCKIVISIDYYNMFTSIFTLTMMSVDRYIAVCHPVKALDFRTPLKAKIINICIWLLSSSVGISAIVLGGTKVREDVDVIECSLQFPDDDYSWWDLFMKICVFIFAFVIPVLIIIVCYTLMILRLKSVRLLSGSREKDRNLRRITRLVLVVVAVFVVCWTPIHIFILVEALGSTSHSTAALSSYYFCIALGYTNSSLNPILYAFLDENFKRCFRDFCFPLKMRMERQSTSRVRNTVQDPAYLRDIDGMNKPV
Experiment notes: OPRK1 antagonist assay (b-arrestin-2-TEV / b-lactamase reporter cell line, EC80 U-50488 challenge)
Assay type: cell-based
Condition details: read-out: IC50 nM (% inhib if other than 50%); antagonist mode vs EC80 U-50488; NA = not active at concentrations up to 10 μM
Outcome measure: IC50
Reply with a number, then the unit it belongs to.

Some solved cases for reference:
- Molecule: "COC(=O)c1cc(Br)cnc1N1CCC(NC2CCCCCCC2)CC1 [compound 21]"
  Experimental target: "kappa opioid receptor (OPRK1) (Homo sapiens (Human), UniProt P41145)"
  IC50: "317 nM"
- Molecule: "CO[C@@H]1CN(c2ncc(C)cc2C(=O)OC(C)C)CC[C@@H]1NC1CCCCC1 [compound 361]"
  Experimental target: "kappa opioid receptor (OPRK1) (Homo sapiens (Human), UniProt P41145)"
  IC50: "1440 nM"
- Molecule: "COC(=O)c1cnc(N2CCC(NC3CCCCC3)CC2)c([N+](=O)[O-])c1 [C36]"
  Experimental target: "kappa opioid receptor (OPRK1) (Homo sapiens (Human), UniProt P41145)"
  IC50: "17000 nM"
- Molecule: "CCCC(C)NC1CCN(c2nc3ccc(C)cc3cc2-c2nc(C)no2)CC1 (centres unmarked) [compound 351]"
  Experimental target: "kappa opioid receptor (OPRK1) (Homo sapiens (Human), UniProt P41145)"
  IC50: "3 nM"

Next up:
Provide the documented IC50 with kappa opioid receptor (OPRK1) (Homo sapiens (Human), UniProt P41145) as the system for COC1CN(c2nc(C)c(C)cc2-c2nc(C)no2)CCC1NCC(C)C (centres unmarked) [compound 378]
256 nM
